- Target Under Test: Nuclear receptor subfamily 1 group I member 3 (Homo sapiens) (UniProt Q14994)
- Sequence (Q14994 whole entry, looked up): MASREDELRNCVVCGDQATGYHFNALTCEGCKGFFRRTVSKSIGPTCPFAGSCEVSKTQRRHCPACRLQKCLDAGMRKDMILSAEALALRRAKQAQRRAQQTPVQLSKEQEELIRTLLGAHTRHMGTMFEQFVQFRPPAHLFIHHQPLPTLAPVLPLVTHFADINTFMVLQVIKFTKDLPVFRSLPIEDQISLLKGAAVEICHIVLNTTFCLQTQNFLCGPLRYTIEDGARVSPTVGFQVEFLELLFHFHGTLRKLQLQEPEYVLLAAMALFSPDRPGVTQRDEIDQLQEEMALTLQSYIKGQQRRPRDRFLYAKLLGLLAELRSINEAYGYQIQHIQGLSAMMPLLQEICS
- Test: qHTS assay to identify small molecule agonists of the constitutive androstane receptor (CAR) signaling pathway (AID 1224839); note: nearly all actives have a fitted effect of over 15% in size;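 for activation: HepG2 cells stably carrying human CAR and a CYP2B6 luciferase reporter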
- Stated Conditions: HepG2 hCAR CYP2B6-luciferase, agonist mode, 24 h; series mostly up to 92.4 µM
Inconclusive results are not listed. Calls of active or inactive are those of the source. Calls come from the whole dose curve; as a rule, active = well fitted activation curve with a large enough effect in the repeat runs; inconclusive = weak or mixed curves; inactive = no such curve, though single readings can be large or run the other way.
Outcomes: YES for active, NO for inactive

{"Molecule": "COC(=O)/C=C(/C)N", "Classification": "NO"}
{"Molecule": "CC(=O)Nc1ccc(C)c(Cl)c1", "Classification": "NO"}
{"Molecule": "O=C(CC(=O)C(F)(F)F)c1ccccc1", "Classification": "YES"}
{"Molecule": "CO[Si](C)(C)OC", "Classification": "NO"}
{"Molecule": "OCc1ccccc1O", "Classification": "NO"}
{"Molecule": "NCCCN1CCN(CCCN)CC1", "Classification": "NO"}
{"Molecule": "NC1=NCC2c3ccccc3Cc3ccccc3N12 (configuration not stated)", "Classification": "NO"}

Sourced from PubChem BioAssay (Tox21)
